Test: Free concentration and protein binding in spiked human serum samples (Table S5)
Details: human, serum, PB, S5a, serum of patient 13 (non-critically ill) spiked 50 mg/L, measured c 53.0 mg/L; calibration with sheep serum
quantityName: fraction unbound

| compound | observedMeasurement |
| --- | --- |
| CN[C@H]1C(=O)N[C@@H]2Cc3ccc(cc3)Oc3cc4cc(c3O[C@@H]3O[C@H](C(=O)O)[C@@H](O)[C@H](O)[C@H]3NC(=O)CCCCCCCCC(C)C)Oc3ccc(cc3Cl)[C@@H](O)[C@@H]3NC(=O)[C@H](NC(=O)[C@@H]4NC(=O)[C@@H](NC2=O)c2cc(cc(O)c2Cl)Oc2cc1ccc2O)c1ccc(O)c(c1)-c1c(O[C@H]2O[C@H](CO)[C@@H](O)[C@H](O)[C@@H]2O)cc(O)cc1[C@@H](C(=O)NCCCN(C)C)NC3=O [dalbavancin, Dalbavancin] | 0.02 |

###

Experiment: Free concentration and protein binding in spiked human serum samples (Table S5)
Details: human, serum, PB, S5a, serum of patient 2 (critically ill) spiked 50 mg/L, measured c 53.6 mg/L; calibration with sheep serum

| compound | fraction unbound |
| --- | --- |
| CN[C@H]1C(=O)N[C@@H]2Cc3ccc(cc3)Oc3cc4cc(c3O[C@@H]3O[C@H](C(=O)O)[C@@H](O)[C@H](O)[C@H]3NC(=O)CCCCCCCCC(C)C)Oc3ccc(cc3Cl)[C@@H](O)[C@@H]3NC(=O)[C@H](NC(=O)[C@@H]4NC(=O)[C@@H](NC2=O)c2cc(cc(O)c2Cl)Oc2cc1ccc2O)c1ccc(O)c(c1)-c1c(O[C@H]2O[C@H](CO)[C@@H](O)[C@H](O)[C@@H]2O)cc(O)cc1[C@@H](C(=O)NCCCN(C)C)NC3=O [dalbavancin, Dalbavancin] | 0.03 |

###

Experiment: Free concentration and protein binding in spiked human serum samples (Table S5)
Conditions: human, serum, PB, S5a, serum of patient 4 (critically ill) spiked 200 mg/L, measured c 212 mg/L; calibration with sheep serum
quantityName: fraction unbound

| molecule | observedMeasurement |
| --- | --- |
| CN[C@H]1C(=O)N[C@@H]2Cc3ccc(cc3)Oc3cc4cc(c3O[C@@H]3O[C@H](C(=O)O)[C@@H](O)[C@H](O)[C@H]3NC(=O)CCCCCCCCC(C)C)Oc3ccc(cc3Cl)[C@@H](O)[C@@H]3NC(=O)[C@H](NC(=O)[C@@H]4NC(=O)[C@@H](NC2=O)c2cc(cc(O)c2Cl)Oc2cc1ccc2O)c1ccc(O)c(c1)-c1c(O[C@H]2O[C@H](CO)[C@@H](O)[C@H](O)[C@@H]2O)cc(O)cc1[C@@H](C(=O)NCCCN(C)C)NC3=O [dalbavancin, Dalbavancin] | 0.04 |

###

Experiment: clinical
Settings: human, in vivo, iv, trough concentrations on day 8 before redosing
quantityName: level at 192 h

| smilesEntry | quantityName | observedMeasurement |
| --- | --- | --- |
| CN[C@H]1C(=O)N[C@@H]2Cc3ccc(cc3)Oc3cc4cc(c3O[C@@H]3O[C@H](C(=O)O)[C@@H](O)[C@H](O)[C@H]3NC(=O)CCCCCCCCC(C)C)Oc3ccc(cc3Cl)[C@@H](O)[C@@H]3NC(=O)[C@H](NC(=O)[C@@H]4NC(=O)[C@@H](NC2=O)c2cc(cc(O)c2Cl)Oc2cc1ccc2O)c1ccc(O)c(c1)-c1c(O[C@H]2O[C@H](CO)[C@@H](O)[C@H](O)[C@@H]2O)cc(O)cc1[C@@H](C(=O)NCCCN(C)C)NC3=O | level at 192 h | 23000 to 44900 ng/mL |

###

Experiment: Free concentration and protein binding in spiked human serum samples (Table S5)
Settings: human, serum, PB, S5a, serum of patient 8 (critically ill) spiked 200 mg/L, measured c 201 mg/L; calibration with sheep serum
quantityName: fraction unbound

| compound | quantityName | observedMeasurement |
| --- | --- | --- |
| CN[C@H]1C(=O)N[C@@H]2Cc3ccc(cc3)Oc3cc4cc(c3O[C@@H]3O[C@H](C(=O)O)[C@@H](O)[C@H](O)[C@H]3NC(=O)CCCCCCCCC(C)C)Oc3ccc(cc3Cl)[C@@H](O)[C@@H]3NC(=O)[C@H](NC(=O)[C@@H]4NC(=O)[C@@H](NC2=O)c2cc(cc(O)c2Cl)Oc2cc1ccc2O)c1ccc(O)c(c1)-c1c(O[C@H]2O[C@H](CO)[C@@H](O)[C@H](O)[C@@H]2O)cc(O)cc1[C@@H](C(=O)NCCCN(C)C)NC3=O [dalbavancin, Dalbavancin] | fraction unbound | 0.04 |

###

Assay: Free concentration and protein binding in spiked human serum samples (Table S5)
Settings: human, serum, PB, S5b, serum of patient 21 (critically ill) spiked 50 mg/L, measured c 55.2 mg/L; calibration with human serum

| smilesEntry | fraction unbound |
| --- | --- |
| CN[C@H]1C(=O)N[C@@H]2Cc3ccc(cc3)Oc3cc4cc(c3O[C@@H]3O[C@H](C(=O)O)[C@@H](O)[C@H](O)[C@H]3NC(=O)CCCCCCCCC(C)C)Oc3ccc(cc3Cl)[C@@H](O)[C@@H]3NC(=O)[C@H](NC(=O)[C@@H]4NC(=O)[C@@H](NC2=O)c2cc(cc(O)c2Cl)Oc2cc1ccc2O)c1ccc(O)c(c1)-c1c(O[C@H]2O[C@H](CO)[C@@H](O)[C@H](O)[C@@H]2O)cc(O)cc1[C@@H](C(=O)NCCCN(C)C)NC3=O | 0.03 |

###

Test: Free concentration and protein binding in spiked human serum samples (Table S5)
Settings: human, serum, PB, S5b, serum of 25 (healthy volunteer) spiked 50 mg/L, measured c 45.8 mg/L; calibration with human serum

| smilesEntry | fraction unbound |
| --- | --- |
| CN[C@H]1C(=O)N[C@@H]2Cc3ccc(cc3)Oc3cc4cc(c3O[C@@H]3O[C@H](C(=O)O)[C@@H](O)[C@H](O)[C@H]3NC(=O)CCCCCCCCC(C)C)Oc3ccc(cc3Cl)[C@@H](O)[C@@H]3NC(=O)[C@H](NC(=O)[C@@H]4NC(=O)[C@@H](NC2=O)c2cc(cc(O)c2Cl)Oc2cc1ccc2O)c1ccc(O)c(c1)-c1c(O[C@H]2O[C@H](CO)[C@@H](O)[C@H](O)[C@@H]2O)cc(O)cc1[C@@H](C(=O)NCCCN(C)C)NC3=O | 0.03 |

###

Assay: Free concentration and protein binding in spiked human serum samples (Table S5)
Details: human, serum, PB, S5b, serum of patient 16 (critically ill) spiked 50 mg/L, measured c 56.7 mg/L; calibration with human serum
quantityName: fraction unbound

| molecule | quantityName | observedMeasurement |
| --- | --- | --- |
| CN[C@H]1C(=O)N[C@@H]2Cc3ccc(cc3)Oc3cc4cc(c3O[C@@H]3O[C@H](C(=O)O)[C@@H](O)[C@H](O)[C@H]3NC(=O)CCCCCCCCC(C)C)Oc3ccc(cc3Cl)[C@@H](O)[C@@H]3NC(=O)[C@H](NC(=O)[C@@H]4NC(=O)[C@@H](NC2=O)c2cc(cc(O)c2Cl)Oc2cc1ccc2O)c1ccc(O)c(c1)-c1c(O[C@H]2O[C@H](CO)[C@@H](O)[C@H](O)[C@@H]2O)cc(O)cc1[C@@H](C(=O)NCCCN(C)C)NC3=O [dalbavancin, Dalbavancin] | fraction unbound | 0.04 |

###

Assay: Free concentration and protein binding in spiked human serum samples (Table S5)
Conditions: human, serum, PB, S5a, serum of patient 5 (critically ill) spiked 50 mg/L, measured c 53.0 mg/L; calibration with sheep serum

| smilesEntry | fraction unbound |
| --- | --- |
| CN[C@H]1C(=O)N[C@@H]2Cc3ccc(cc3)Oc3cc4cc(c3O[C@@H]3O[C@H](C(=O)O)[C@@H](O)[C@H](O)[C@H]3NC(=O)CCCCCCCCC(C)C)Oc3ccc(cc3Cl)[C@@H](O)[C@@H]3NC(=O)[C@H](NC(=O)[C@@H]4NC(=O)[C@@H](NC2=O)c2cc(cc(O)c2Cl)Oc2cc1ccc2O)c1ccc(O)c(c1)-c1c(O[C@H]2O[C@H](CO)[C@@H](O)[C@H](O)[C@@H]2O)cc(O)cc1[C@@H](C(=O)NCCCN(C)C)NC3=O | 0.04 |

###

Experiment: Free concentration and protein binding in spiked human serum samples (Table S5)
Conditions: human, serum, PB, S5b, serum of patient 23 (critically ill) spiked 50 mg/L, measured c 56.0 mg/L; calibration with human serum

| compound | fraction unbound |
| --- | --- |
| CN[C@H]1C(=O)N[C@@H]2Cc3ccc(cc3)Oc3cc4cc(c3O[C@@H]3O[C@H](C(=O)O)[C@@H](O)[C@H](O)[C@H]3NC(=O)CCCCCCCCC(C)C)Oc3ccc(cc3Cl)[C@@H](O)[C@@H]3NC(=O)[C@H](NC(=O)[C@@H]4NC(=O)[C@@H](NC2=O)c2cc(cc(O)c2Cl)Oc2cc1ccc2O)c1ccc(O)c(c1)-c1c(O[C@H]2O[C@H](CO)[C@@H](O)[C@H](O)[C@@H]2O)cc(O)cc1[C@@H](C(=O)NCCCN(C)C)NC3=O [dalbavancin, Dalbavancin] | 0.04 |
